system: HT-29; assay: SRB colorimetric cell growth inhibition assay, HT-29; assay type: cell-based; conditions: Homo sapiens; HT-29; GI=growth inhibition; read-out: GI50 HT-29
RECORDED_ENDPOINT: GI50 (nM)
Answer format: numeric, nM implied, no suffix.

I have this compound here, COc1cc(-c2c3c4cc(OC)c(OC(=O)[C@@H](NC(=O)OC(C)(C)C)C(C)C)cc4oc(=O)c3n3ccc4cc(OC(=O)[C@@H](NC(=O)OC(C)(C)C)C(C)C)c(OC)cc4c23)ccc1OC(=O)[C@@H](NC(=O)OC(C)(C)C)C(C)C , and I need its recorded GI50.
32.4

I would be grateful if you could share the reported GI50 for COc1cc(-c2c3n(c4c(=O)oc5cc(OC(=O)[C@H](Cc6c[nH]c7ccccc67)NC(=O)OC(C)(C)C)c(OC)cc5c24)CCc2cc(OC(=O)[C@H](Cc4c[nH]c5ccccc45)NC(=O)OC(C)(C)C)c(OC)cc2-3)ccc1OC(=O)[C@H](Cc1c[nH]c2ccccc12)NC(=O)OC(C)(C)C .
1840

Return reported GI50; argument: COc1cc(-c2c3n(c4c(=O)oc5cc(OC(=O)[C@H](C)NC(=O)[C@H](C)NC(=O)OC(C)(C)C)c(OC)cc5c24)CCc2cc(OC(=O)[C@H](C)NC(=O)[C@H](C)NC(=O)OC(C)(C)C)c(OC)cc2-3)ccc1OC(=O)[C@H](C)NC(=O)[C@H](C)NC(=O)OC(C)(C)C
871

// GI50 lookup, key: COc1cc(-c2c3c4cc(OC)c(OC(=O)[C@H](N)C(C)C)cc4oc(=O)c3n3ccc4c(OC(=O)[C@H](N)C(C)C)c(OC)c(OC)cc4c23)ccc1OC(=O)[C@H](N)C(C)C
12100

---

Could you please report measured CC50 for the items listed next?
test system: SK-BR-3; assay: SRB colorimetric cell growth inhibition assay, SK-BR-3; format: cell-based; details: Homo sapiens, SK-BR-3, SK-BR-3; LC=cell killing (cytotoxic effect); read-out: LC50 SK-BR-3
Report the figure in µM without appending any unit label.

Consider the compound COc1cc(-c2c3c4cc(OC)c(OC(=O)[C@H](C)NC(=O)OC(C)(C)C)cc4oc(=O)c3n3ccc4c(OC(=O)[C@H](C)NC(=O)OC(C)(C)C)c(OC)c(OC)cc4c23)ccc1OC(=O)[C@H](C)NC(=O)OC(C)(C)C [Compound 97] and give its measured CC50.
9.59

// returns reported CC50 for input COc1cc2c(cc1OC)-c1c(-c3ccc(OC(=O)CCc4ccccc4)c(OC)c3)c3c4cc(OC)c(OC(=O)CCc5ccccc5)cc4oc(=O)c3n1CC2 [Compound 93]
12.8

Form field: reported CC50 of COc1cc2c(cc1OC)-c1c(-c3ccc(OC(=O)[C@H](C)N)c(OC)c3)c3c4cc(OC)c(OC(=O)[C@H](C)N)cc4oc(=O)c3n1CC2 [Compound 63]
14.7

---

test system: SK-BR-3; assay: SRB colorimetric cell growth inhibition assay, SK-BR-3; assay type: cell-based; details: Homo sapiens, SK-BR-3, SK-BR-3; LC=cell killing (cytotoxic effect); read-out: LC50 SK-BR-3
Hi there, I'd appreciate the recorded CC50 for every entry that follows.
Lab book: enter the figure in µM, no units written.

Recall the recorded CC50 for COc1cc(-c2c3c4cc(OC)c(OC(=O)[C@H](C)NC(=O)OC(C)(C)C)cc4oc(=O)c3n3ccc4cc(OC(=O)[C@H](C)NC(=O)OC(C)(C)C)c(OC)cc4c23)ccc1OC(=O)[C@H](C)NC(=O)OC(C)(C)C with SK-BR-3 and state it.
9.87

Give recorded CC50 with SK-BR-3 for the following compound: COc1cc(-c2c3n(c4c(=O)oc5cc(N)c(OC)cc5c24)CCc2cc(OC)c(OC)cc2-3)ccc1N
19.5

Tell me reported CC50 for COc1cc(-c2c3c4cc(OC)c(OC(=O)[C@@H](N)CC(C)C)cc4oc(=O)c3n3ccc4cc(OC(=O)[C@@H](N)CC(C)C)c(OC)cc4c23)ccc1OC(=O)[C@@H](N)CC(C)C , tested with SK-BR-3.
8.47

Which CC50 is reported with SK-BR-3 for this entry: COc1cc(-c2c3c4cc(OC)c(OC(C)C)cc4oc(=O)c3n3ccc4c([N+](=O)[O-])cccc4c23)ccc1OC(C)C ?
17.2

Can you look up CC50 on SK-BR-3 for COc1cc2ccn3c(c(-c4ccc(OC(=O)[C@H](C)NC(=O)OC(C)(C)C)c(OC)c4)c4c5cc(OC)c(OC(=O)[C@H](C)NC(=O)OC(C)(C)C)cc5oc(=O)c43)c2cc1OC ?
11.7
